Each recorded value in this set is attributed to paper PMC5540273.

Test system: WEE1
Conditions: concentration: 1 μM,replicates: in singlicate; n = 1;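 also: KINOMEscan kinase panel screen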

{"compound": "Cl.Cl.Nc1nc(-c2ccc3c(N)n[nH]c3c2)cc(N2CCCC(NC(=O)c3ccccc3)C2)n1 (stereo not shown)", "%Inh": "18%"}
{"compound": "Cc1occc1-c1nc(N)c(OC[C@@H](N)Cc2c[nH]c3ccccc23)cc1-c1cc2c(C)n[nH]c2cn1", "%Inh": "0%"}
{"compound": "CCn1c(-c2nonc2N)nc2c(C#CC(C)(C)O)nc(OCCN)cc21.Cl.Cl", "%Inh": "6%"}
{"compound": "CCN(CC)CCOc1ccc(Nc2ncc3cc(-c4c(Cl)cccc4Cl)c(=O)n(C)c3n2)cc1", "%Inh": "99.9%"}

====

Test system: HCK
Conditions: concentration: 1 μM,replicates: in singlicate; n = 1
%Inh by entry:
value.type: %Inh (%)

{"query.smiles": "CCn1c(-c2nonc2N)nc2c(C#CC(C)(C)O)nc(OCCN)cc21.Cl.Cl", "readout.number": 0}
{"query.smiles": "COc1ccc(C[C@@H](CN)NC(=O)c2cc(Br)c(-c3ccnc4[nH]ccc34)s2)cc1.Cl.Cl", "readout.number": 0}
{"query.smiles": "CCN(CC)CCCCNc1ncc2cc(-c3c(Cl)cccc3Cl)c(NC(=O)NC(C)(C)C)nc2n1", "readout.number": 97.6}
{"query.smiles": "Cc1cc(C(=O)Nc2ccc(Oc3ccc4nc(NC(=O)C5CC5)cn4n3)cc2)nn1-c1ccccc1", "readout.number": 73}

====

Parameter: %Inh. Scope: all listed entries.
System: JAK2(JH1domain-catalytic)
Conditions: concentration: 1 μM,replicates: in singlicate; n = 1
value.type: %Inh (%)

{"molecule": "CN(C)CC(O)COc1ccc(Nc2nccc(-c3cnn4nc(N5CCOCC5)ccc34)n2)cc1 (stereo not drawn) [GW767488]", "value.type": "%Inh", "readout.number": 94.7}
{"molecule": "CCn1c(-c2nonc2N)nc2c(C#CC(C)(C)O)nc(OCCN)cc21.Cl.Cl [GSK902056]", "value.type": "%Inh", "readout.number": 39}
{"molecule": "COc1ccc(C[C@@H](CN)NC(=O)c2cc(Br)c(-c3ccnc4[nH]ccc34)s2)cc1.Cl.Cl [GSK1389063]", "value.type": "%Inh", "readout.number": 94.4}
{"molecule": "Cc1ccc(-n2nc(C(C)(C)C)cc2NC(=O)Nc2ccc(OCCN3CCOCC3)c3ccccc23)cc1 [GW839464]", "value.type": "%Inh", "readout.number": 0}
{"molecule": "NC(=O)c1cc(-c2ccccc2)cc2c(C3CCNCC3)c[nH]c12 [GSK301362]", "value.type": "%Inh", "readout.number": 95.1}
{"molecule": "Cl.Cl.NC[C@H](CC1CCCCC1)NC(=O)c1cc(Br)c(-c2ccnc3[nH]ccc23)s1 [GSK1581427]", "value.type": "%Inh", "readout.number": 82}

====

System: SgK110
Details: concentration: 1 μM,replicates: in singlicate; n = 1

{"molecule": "Cc1cc2cn[nH]c2cc1-c1cccc2c(N)c(C(N)=O)nnc12", "unit.tag": "%", "%Inh": 0}
{"molecule": "CN(C)CC(O)COc1ccc(Nc2nccc(-c3cnn4nc(N5CCOCC5)ccc34)n2)cc1 (stereo not shown)", "unit.tag": "%", "%Inh": 0}
{"molecule": "Cl.Cl.Nc1nc(-c2ccc3c(N)n[nH]c3c2)cc(N2CCCC(NC(=O)c3ccccc3)C2)n1 (stereo not shown)", "unit.tag": "%", "%Inh": 0}
{"molecule": "Cl.Cl.NC[C@H](CC1CCCCC1)NC(=O)c1cc(Br)c(-c2ccnc3[nH]ccc23)s1", "unit.tag": "%", "%Inh": 82}
{"molecule": "Cc1ccc2c(-c3ccncc3)c(-c3ccc(F)cc3)nn2c1.Cl", "unit.tag": "%", "%Inh": 0}
{"molecule": "O=C(NCCNc1ccnc(NCc2ccc(F)cc2)n1)c1cc2ccccc2s1", "unit.tag": "%", "%Inh": 17}
{"molecule": "Cc1cc(C(=O)Nc2ccc(Oc3ccc4nc(NC(=O)C5CC5)cn4n3)cc2)nn1-c1ccccc1", "unit.tag": "%", "%Inh": 0}
{"molecule": "C=CC(=O)Nc1cc2c(Nc3ccc(F)c(Cl)c3)ncnc2cc1OCCCN1CCOCC1", "unit.tag": "%", "%Inh": 0}
{"molecule": "C[C@@H]1CCN(C(=O)CC#N)C[C@@H]1N(C)c1ncnc2[nH]ccc12", "unit.tag": "%", "%Inh": 50}
{"molecule": "CC(C)N1C(=O)Cc2cc(Nc3ncc(C(F)(F)F)c(NCc4cccc(S(C)(=O)=O)c4)n3)ccc21", "unit.tag": "%", "%Inh": 0}
{"molecule": "C[C@H]1Oc2cc(cnc2N)-c2c(nn(C)c2C#N)CN(C)C(=O)c2ccc(F)cc21", "unit.tag": "%", "%Inh": 21}
{"molecule": "Cl.Cl.NC[C@H](Cc1ccc(C(F)(F)F)cc1)NC(=O)c1cc(Br)c(-c2ccnc3[nH]ccc23)s1", "unit.tag": "%", "%Inh": 75}
{"molecule": "CC(C)Nc1cc(-c2ccc3c(N)n[nH]c3c2)nc(N)n1", "unit.tag": "%", "%Inh": 0}
{"molecule": "CCN(CC)CCCCNc1ncc2cc(-c3c(Cl)cccc3Cl)c(NC(=O)NC(C)(C)C)nc2n1", "unit.tag": "%", "%Inh": 25}
{"molecule": "Nc1nc(Nc2ccccc2)cc(-c2ccc3c(N)n[nH]c3c2)n1", "unit.tag": "%", "%Inh": 0}
{"molecule": "CN(C)CCOc1ccc(-c2cc(-c3c[nH]nc3-c3ccccn3)ccn2)cc1", "unit.tag": "%", "%Inh": 0}
{"molecule": "COc1ccc(C[C@@H](CN)NC(=O)c2cc(Br)c(-c3ccnc4[nH]ccc34)s2)cc1.Cl.Cl", "unit.tag": "%", "%Inh": 85}
{"molecule": "O=C(NCCCN1CCOC1=O)c1cnc(NCc2cc(Cl)ccc2Cl)nc1NC1CCCC1", "unit.tag": "%", "%Inh": 0}
{"molecule": "CCN(CC)CCOc1ccc(Nc2ncc3cc(-c4c(Cl)cccc4Cl)c(=O)n(C)c3n2)cc1", "unit.tag": "%", "%Inh": 84}
